Ref: the C3SDB collision cross section collection

# measurement parameters: [M-H]-; instrument: TW; calibrated with phosphatidylcholines (ESI+) and phosphatidylethanolamines (ESI-)
value type: collision cross section (N2) (Å²)
Express your answer in Å², writing the number without its unit.

Known results for compounds:
Value of collision cross section (N2) reported for the compound `CCCCC/C=C\C/C=C\C/C=C\CCCCCCC(=O)O[C@H](COC(=O)CCCCCCC/C=C\C/C=C\CCCCC)COP(=O)(O)OCCN` is 269.5

Value of collision cross section (N2) reported for the compound `CCCCC/C=C\C/C=C\CCCCCCCC(=O)O[C@H](COC(=O)CCCCCCCCCCCCCCCCC)COP(=O)(O)O` is 259.5

Value of collision cross section (N2) reported for the compound `CCCCC/C=C\C/C=C\C/C=C\CCCCCCC(=O)O[C@H](CO/C=C\CCCCCCCCCCCCCCCC)COP(=O)(O)OCCN` is 270.9

Continuing:
Value of collision cross section (N2) reported for the compound CCCC/C=C\C/C=C\CCCCCCCC(=O)O[C@H](COC(=O)CCCCCCC/C=C\CCCCCCCCC)COP(=O)(O)O[C@H]1C(O)C(O)C(O)[C@@H](O)C1O (some centres undefined) is 287.2

Value of collision cross section (N2) reported for the compound `CCCCC/C=C\C/C=C\C/C=C\CCCCC(=O)OC[C@H](COP(=O)(O)OC[C@H](N)C(=O)O)OC(=O)CCCCCCCCCCC/C=C\C/C=C\CCCCC` is 285.6

Value of collision cross section (N2) reported for the compound `CCCC/C=C\CCCCCCCC(=O)O[C@H](CO/C=C\CCCCCCCCCCCCCCCCCC)COP(=O)(O)OCCN` is 262.1

Value of collision cross section (N2) reported for the compound `CCCCC/C=C\C/C=C\C/C=C\C/C=C\CCCCCC(=O)O[C@H](COC(=O)CCCCCCC/C=C\C/C=C\CCCCC)COP(=O)(O)OC[C@H](N)C(=O)O` is 284.6

Value of collision cross section (N2) reported for the compound `CCCC/C=C\CCCCCCCC(=O)OC[C@H](COP(=O)(O)OC[C@@H](O)CO)OC(=O)CCCCCCCCCCC/C=C\C/C=C\CCCCC` is 272.2

Value of collision cross section (N2) reported for the compound `CCCCCCCCCCCCC=CC[C@@H](O)[C@H](CO)NC(=O)CC=CCCCCCCCCCCCCCCCCCC` is 260.2

Value of collision cross section (N2) reported for the compound `CCCCC/C=C\C/C=C\CCCCCCCCCCCC(=O)O[C@H](COC(=O)CCCCCCC/C=C\CCCCCC)COP(=O)(O)OCCN` is 271.7

Value of collision cross section (N2) reported for the compound `CC/C=C\C/C=C\C/C=C\C/C=C\CCCCC(=O)O[C@H](COC(=O)CCCCCCCCCCC/C=C\C/C=C\CCCCC)COP(=O)(O)OC[C@@H](O)CO` is 281.9

Value of collision cross section (N2) reported for the compound `CCCCCC/C=C\CCCCCCCC(=O)OC[C@H](COP(=O)(O)OCCN)OC(=O)CCCCCCCCC/C=C\CCCCCCCCCC` is 274.1

Value of collision cross section (N2) reported for the compound `CCCCC/C=C\C/C=C\C/C=C\C/C=C\CCCCCC(=O)O[C@H](COC(=O)CCCCCCC/C=C\C/C=C\CCCCC)COP(=O)(O)OCCN` is 275.4

Value of collision cross section (N2) reported for the compound `CCCCC/C=C\C/C=C\CCCCCCCCCCCC(=O)O[C@H](COC(=O)CCCCCCCCCCC)COP(=O)(O)OC[C@@H](O)CO` is 267.4

Value of collision cross section (N2) reported for the compound `CCCCCC/C=C\CCCCCCCC(=O)O[C@H](CO/C=C\CCCCCCCCCCCCCCCCCC)COP(=O)(O)OCCN` is 267.3

Value of collision cross section (N2) reported for the compound CCCCCCCCCC/C=C\CCCCCCCCCC(=O)O[C@H](COC(=O)CCCCCCCCCCCCC)COP(=O)(O)O[C@H]1C(O)C(O)C(O)[C@@H](O)C1O (some centres undefined) is 289.6

Value of collision cross section (N2) reported for the compound `CCCCC/C=C\C/C=C\C/C=C\C/C=C\CCCCCC(=O)O[C@H](CO/C=C\CCCCCCCCCCCCCC)COP(=O)(O)OCCN` is 270.3

Value of collision cross section (N2) reported for the compound `CCCCCCCCCCCCCCCCC(=O)O[C@H](COC(=O)CCCCCCCCCCCCCC)COP(=O)(O)OC[C@@H](O)CO` is 263.5

Value of collision cross section (N2) reported for the compound `CCCCC/C=C\C/C=C\CCCCCCCCCC(=O)O[C@H](CO/C=C\CCCCCCCCCCCCCC)COP(=O)(O)OCCN` is 266.5
